Target: T1, EsCas13d, nuclease-dead (Eubacterium siraeum, UniProt B0MS50, R295A;H300A;R849A;H854A)
T1 sequence: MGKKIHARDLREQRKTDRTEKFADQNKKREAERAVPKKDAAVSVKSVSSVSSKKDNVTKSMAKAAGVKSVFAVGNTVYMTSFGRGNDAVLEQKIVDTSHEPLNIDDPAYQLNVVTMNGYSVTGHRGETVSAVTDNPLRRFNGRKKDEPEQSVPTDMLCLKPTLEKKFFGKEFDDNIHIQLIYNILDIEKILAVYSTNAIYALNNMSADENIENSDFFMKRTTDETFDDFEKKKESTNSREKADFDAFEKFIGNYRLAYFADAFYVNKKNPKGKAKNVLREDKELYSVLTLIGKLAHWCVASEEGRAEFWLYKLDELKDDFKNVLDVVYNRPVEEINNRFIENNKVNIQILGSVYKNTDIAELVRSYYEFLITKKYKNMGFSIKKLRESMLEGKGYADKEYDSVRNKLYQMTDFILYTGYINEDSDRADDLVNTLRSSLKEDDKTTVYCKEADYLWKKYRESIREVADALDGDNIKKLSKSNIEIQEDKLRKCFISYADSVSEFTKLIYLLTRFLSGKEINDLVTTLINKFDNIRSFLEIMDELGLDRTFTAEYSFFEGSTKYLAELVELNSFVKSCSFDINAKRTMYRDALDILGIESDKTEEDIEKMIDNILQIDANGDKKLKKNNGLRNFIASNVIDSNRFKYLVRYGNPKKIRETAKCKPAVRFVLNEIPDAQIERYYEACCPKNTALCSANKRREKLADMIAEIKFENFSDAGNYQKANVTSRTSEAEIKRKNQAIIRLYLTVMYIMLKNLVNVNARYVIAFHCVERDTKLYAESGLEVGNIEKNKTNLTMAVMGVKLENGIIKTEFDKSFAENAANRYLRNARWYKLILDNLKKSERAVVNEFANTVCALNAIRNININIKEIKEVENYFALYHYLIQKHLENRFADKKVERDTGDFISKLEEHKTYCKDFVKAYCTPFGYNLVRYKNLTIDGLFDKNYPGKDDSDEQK
Assay: crRNA (strand 1, pre-loaded); Mg2+; 40 mM Tris-HCl pH 7.5, 150 mM NaCl, 6 mM MgCl2, 1 mM DTT, 0.1% Tween-20, 0.2 mg/ml BSA; 25 C; 10 min per concentration, then washed
Details: tags: His6-TwinStrep-SUMO cleaved; N-terminal SNAP kept (SNAP-Surface 488); label: 3' end held by stalled T7 RNA polymerase
endpoint_name: Kd (nM)

{"binder": "target 3 G4A,U21A (mixed) RNA 1: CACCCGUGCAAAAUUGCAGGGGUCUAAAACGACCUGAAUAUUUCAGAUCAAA RNA 2: GGGAAUGGAUCCACAUCUACGAAUUCGUUUAUGAUCUGAAAUAUUCAAGUCUGCAGAUCGGAAGAGCACACGU", "endpoint_value": 35.1}
{"binder": "target 1 MT 5'PFS UUG 3'PFS UGU (mixed) RNA 1: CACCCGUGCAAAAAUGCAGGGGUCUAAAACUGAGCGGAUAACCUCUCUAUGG RNA 2: GGGAAUGGAUCCACAUCUACGAAUUCUUGCCAUAGAGAGGUUAUCCGCUCAUGUAGAUCGGAAGAGCACACGU", "endpoint_value": 51}
{"binder": "target 1 MT 5'PFS GGC 3'PFS AGC (mixed) RNA 1: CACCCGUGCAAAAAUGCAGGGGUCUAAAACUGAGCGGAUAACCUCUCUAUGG RNA 2: GGGAAUGGAUCCACAUCUACGAAUUCGGCCCAUAGAGAGGUUAUCCGCUCAAGCAGAUCGGAAGAGCACACGU", "endpoint_value": 9.95}
{"binder": "target 1 insU 3' of 5,insA 3' of 3 (mixed) RNA 1: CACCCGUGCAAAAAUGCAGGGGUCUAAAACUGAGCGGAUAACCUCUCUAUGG RNA 2: GGGAAUGGAUCCACAUCUACGAAUUCGUACCAUAGAGAGGUUAUCCGUCUACACCGAGAUCGGAAGAGCACACGU", "endpoint_value": 19.9}
